Tested on: MLK1
Construct: gene MAP3K9
Conditions: concentration: 1 μM, replicates: in singlicate; n = 1;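 also: KINOMEscan kinase panel screen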
Entries and their %Inh values follow.
Remember to follow the number with its unit.

Example entries and their recorded answers appear below.
Need %Inh, item CCCCCc1nc2c(N)ncnc2n1CCCCC
0%

Need %Inh, item Cc1ccc(NC(=O)c2ccnc(N3CCN(C)CC3)c2)cc1-c1ccc(C(=O)NCC2CC2)cc1
0%

Need %Inh, item COc1ccc(Nc2ncc(C#N)c(Nc3ccccc3C(N)=O)n2)cc1N1CCN(C)CC1.Cl
98.7%

Shifting focus to the compound that follows.
Need %Inh, item O=C(Nc1n[nH]c2cc(-c3cccc(F)c3)ccc12)C1CC1
0%

* * *

Tested on: JNK3
Construct: gene MAPK10
Details: concentration: 1 μM, replicates: in singlicate; n = 1
measured-parameter: %Inh (%)
Write the number in % without appending the unit.

Example entries and their recorded answers appear below.
Need %Inh, item Cl.Cl.Cl.Fc1ccc(-c2ncn(C3CCNCC3)c2-c2ccnc(Nc3ccccc3)n2)cc1
99.8

Need %Inh, item O=c1cc(N2CCOCC2)nc2n(Cc3cccc(F)c3)ccn12
0

Need %Inh, item Cc1c(Cn2c(C)nn3c(=O)cc(N4CCOC(C)C4)nc23)cccc1C(F)(F)F (stereo not drawn)
2

Need %Inh, item Cn1ccc2ncnc(Oc3ccc(NC(=O)Nc4ccncc4)c(Cl)c3)c21
0

Need %Inh, item CCc1ccnc(/C=C/c2n[nH]c3cc(Sc4ccccc4C(=O)NC)ccc23)c1
0

Continuing:
Need %Inh, item CC(C)(C)n1cnc2c(N)ncnc21
2

Need %Inh, item Cc1cccc(-c2nc(Nc3ccc4ncsc4c3)c3ccccc3n2)n1
0

Need %Inh, item O=C(NCCNc1ccnc(Nc2ccc(F)cc2)n1)c1cc2ccccc2s1
0

Need %Inh, item Cc1ccc(C(=O)NCC(N)=O)cc1-n1c(C)cc(OCc2ccc(F)cc2F)c(Br)c1=O
0

* * *

Tested on: TRKA
Construct: gene NTRK1
Conditions: concentration: 1 μM, replicates: in singlicate; n = 1
measured-parameter: %Inh (%)
Write the number in % without appending the unit.

Example entries and their recorded answers appear below.
Need %Inh, item Cc1cccc(Cn2ccn3c(=O)cc(N4CCOCC4)nc23)c1
0

Need %Inh, item COc1ccc(CNC(=O)NC2CCN(c3ccnc(Nc4ccc(OC)cc4)n3)C2)cc1 (stereo not drawn)
0

Continuing:
Need %Inh, item CCn1cnc2c(N)ncnc21
24

* * *

Entries and their %Inh values follow.
Tested on: AMPK-alpha2
Construct: gene PRKAA2
Conditions: concentration: 1 μM, replicates: in singlicate; n = 1
Write the number in % without appending the unit.

Need %Inh, item Cl.Nc1ncnc2occ(-c3ccc(NC(=O)Nc4cc(C(F)(F)F)ccc4F)cc3)c12
22

Need %Inh, item Fc1ccc(-c2ncn(CCCN3CCOCC3)c2-c2cccnc2)cc1
12

Need %Inh, item Cc1cccc(-c2nc(-c3ccc(S(C)(=O)=O)cc3)sc2-c2ccncc2)c1
7

Continuing:
Need %Inh, item N#Cc1ccc(-c2cc(-c3c[nH]nc3-c3ccccn3)ccn2)cc1
49

Need %Inh, item c1ccc(-c2cc(-c3c[nH]nc3-c3ccccn3)ccn2)cc1
0

Need %Inh, item O=c1cc(N2CCOCC2)nc2n(Cc3cccc(Cl)c3Cl)c(C3CC3)nn12
0

Need %Inh, item COc1cc2c(cc1OCCN1CCN(C)CC1)ncc1c3ccc(C#N)cc3[nH]c21
0

Need %Inh, item Cc1nnc(-c2ccc3occ(-c4ccc(C(C)O)cc4)c3c2)o1 (stereo not drawn)
14

* * *

Entries and their %Inh values follow.
Tested on: PIK3CB
Conditions: concentration: 1 μM, replicates: in singlicate; n = 1
Write the number in % without appending the unit.

Example entries and their recorded answers appear below.
Need %Inh, item COc1ccc(S(=O)(=O)NC2CCN(c3cc(C)nc(Nc4cccc(C#N)c4)n3)CC2)cc1.O=C(O)C(F)(F)F
100

Need %Inh, item COc1ccc(Nc2nccc(N3CCC(NC(=O)Nc4cccc(C(C)=O)c4)C3)n2)cc1 (stereo not shown)
0

Need %Inh, item CCn1cnc2c(N)ncnc21
0

Need %Inh, item COc1ccc(COc2cc(-n3cnc4ccccc43)sc2C(N)=O)cc1
100

Need %Inh, item Cc1cn2c(=O)cc(N3CCOCC3)nc2n1Cc1cccc(Cl)c1Cl
88

Continuing:
Need %Inh, item COc1ccc(CNC(=O)NC2CCN(c3ccnc(Nc4ccc(OC)cc4)n3)C2)cc1 (stereo not shown)
0

Need %Inh, item O=C1Cc2cc(Nc3nc(NCc4cccc(S(=O)(=O)C(F)(F)F)c4)ncc3C(F)(F)F)ccc2N1
0

* * *

Tested on: ROCK1
Conditions: concentration: 1 μM, replicates: in singlicate; n = 1
Entries and their %Inh values follow.
Write the number in % without appending the unit.

Example entries and their recorded answers appear below.
Need %Inh, item COc1ccc(S(=O)(=O)NC2CCN(c3cc(C)nc(Nc4cccc(C#N)c4)n3)CC2)cc1.O=C(O)C(F)(F)F
0

Need %Inh, item O=C(NCCCN1CCOCC1)c1cccc(Nc2nccc(Nc3ccc(Oc4ccccc4)cc3)n2)c1
0

Need %Inh, item NS(=O)(=O)CCc1cccc(Nc2nccc(-c3c(-c4cccc(NC(=O)c5c(F)cccc5F)c4)nn4ccccc34)n2)c1
24

Need %Inh, item O=C(Nc1n[nH]c2cc(-c3cccc(F)c3)ccc12)C1CC1
18

Need %Inh, item NS(=O)(=O)c1cccc(-c2ccc3nccc(-c4cccc(S(N)(=O)=O)c4)c3c2)c1
37

Need %Inh, item N#Cc1c(N2CCOCC2)sc(-c2ccn[nH]2)c1-c1ccc(Cl)cc1
11

Continuing:
Need %Inh, item CC(C)(C)n1cnc2c(N)ncnc21
52

Need %Inh, item O=c1cc(N2CCOCC2)nc2n(Cc3cccc(Cl)c3Cl)c(C3CC3)nn12
0

* * *

Test system: TYK2(JH1domain-catalytic)
Settings: concentration: 1 μM, replicates: in singlicate; n = 1
measured-parameter: %Inh (%)
Write the number in % without appending the unit.

Example entries and their recorded answers appear below.
Need %Inh, item Cn1ccc2ncnc(Oc3ccc(NC(=O)Nc4ccncc4)c(Cl)c3)c21
3

Need %Inh, item N#Cc1ccc(-c2cc(-c3c[nH]nc3-c3ccccn3)ccn2)cc1
1

Need %Inh, item Cc1cccc(-c2nc(-c3ccc(S(C)(=O)=O)cc3)sc2-c2ccncc2)c1
2

Need %Inh, item O=C(Nc1n[nH]c2cc(-c3cccc(F)c3)ccc12)C1CC1
1

Need %Inh, item COc1ccc(Nc2ncc(C#N)c(Nc3ccccc3C(N)=O)n2)cc1N1CCN(C)CC1.Cl
99.8

Need %Inh, item CC(C)Oc1ccc2c(-c3ccnc(Nc4ccc(N5CCN(C)CC5)cc4)n3)cnn2n1
98

Continuing:
Need %Inh, item CC(C)(C)n1cnc2c(N)ncnc21
21

Need %Inh, item NS(=O)(=O)c1cccc(-c2ccc3nccc(-c4cccc(S(N)(=O)=O)c4)c3c2)c1
0

Need %Inh, item Cc1cccc(Cn2ccn3c(=O)cc(N4CCOCC4)nc23)c1
0

* * *

Entries and their %Inh values follow.
Tested on: PIK3C2G
Conditions: concentration: 1 μM, replicates: in singlicate; n = 1
Write the number in % without appending the unit.

Need %Inh, item Fc1ccc(-c2ncn(CCCN3CCOCC3)c2-c2ccccn2)cc1 [SB-211742]
0

Need %Inh, item COc1ccc(CNC(=O)NC2CCN(c3ccnc(Nc4ccc(OC)cc4)n3)C2)cc1 (centres unmarked) [GSK1379727]
0

Need %Inh, item CC(C)Oc1ccc2c(-c3ccnc(Nc4ccc(N5CCN(C)CC5)cc4)n3)cnn2n1 [GW696155]
0

Need %Inh, item Nc1nc(-c2ccc3c(N)n[nH]c3c2)cc(N2CCCC2)n1 [GSK2227430]
0

Need %Inh, item NCC(NC(=O)c1cc(-c2cn[nH]c2)c(-c2ccnc3[nH]ccc23)s1)c1ccccc1.O=C(O)C(F)(F)F.O=C(O)C(F)(F)F (centres unmarked) [GSK1325775]
0

Need %Inh, item NS(=O)(=O)c1cccc(-c2ccc3nccc(-c4cccc(S(N)(=O)=O)c4)c3c2)c1 [GW867253]
52

Need %Inh, item Cc1ccc(NC(=O)c2ccnc(N3CCN(C)CC3)c2)cc1-c1ccc(C(=O)NCC2CC2)cc1 [GW775604]
0

Shifting focus to the molecule that follows.
Need %Inh, item COc1cc(Nc2nccc(N3CCC(NC(=O)c4cccc(NC(C)=O)c4)C3)n2)cc(OC)c1OC (centres unmarked) [GSK1379754]
0

* * *

Test system: ERN1
Details: concentration: 1 μM, replicates: in singlicate; n = 1
Short version: %Inh at least 4% is yes, less is no.

Reported %Inh reaches at least 4% for Fc1ccc(-c2ncn(CCCN3CCOCC3)c2-c2ccccn2)cc1 [SB-211742] ?
no

* * *

Test system: ROS1
Conditions: concentration: 1 μM, replicates: in singlicate; n = 1
measured-parameter: %Inh
Remember to follow the number with its unit.

Example entries and their recorded answers appear below.
Need %Inh, item CC(C)Oc1ccc2c(-c3ccnc(Nc4ccc(N5CCN(C)CC5)cc4)n3)cnn2n1 [GW696155]
51%

Need %Inh, item COc1cc2c(cc1OCCN1CCN(C)CC1)ncc1c3ccc(C#N)cc3[nH]c21
0%

Need %Inh, item Cl.Nc1ncnc2occ(-c3ccc(NC(=O)Nc4cc(C(F)(F)F)ccc4F)cc3)c12 [SB-707548]
50%

Need %Inh, item Cc1c(Cn2c(C)nn3c(=O)cc(N4CCOC(C)C4)nc23)cccc1C(F)(F)F (stereo not drawn) [GSK2344444]
14%

Need %Inh, item COc1cc2c(cc1OC[C@@H](O)CO)ncc1c3ccc(C#N)cc3[nH]c21
0%

Continuing:
Need %Inh, item Cc1cccc(Cn2ccn3c(=O)cc(N4CCOCC4)nc23)c1 [GSK2297542]
30%

Need %Inh, item COC(=O)Nc1nc2cc(Oc3ccc(NC(=O)Nc4cc(F)ccc4F)cc3)ccc2[nH]1.Cl [GW701424]
0%

Need %Inh, item CC(C)(C)n1cnc2c(N)ncnc21 [SKF-97359]
64%

Need %Inh, item O=c1cc(N2CCOCC2)nc2n(Cc3cccc(C(F)(F)F)c3)ccn12 [GSK2297543]
32%
